Catalogue of compounds with associated permeability
# experiment: Permeability of the compound at donor pH 5.0 and acceptor pH 7.4 by PAMPA
# Format: ADME
Express your answer in nm/s, writing the number without its unit.

Query (compound): CN(C)S(=O)(=O)c1cccc(-n2sc3ccccc3c2=O)c1 ; field requested: permeability
7810

Give the measured permeability of O=C(O)c1cccc(-n2sc3ccccc3c2=O)c1 .
1570

For CN(C)C(=O)c1cccc(-n2sc3ccccc3c2=O)c1 , what is its reported permeability?
940

Here's the next entry for you.
Can you share its permeability? I mean this compound: COC(=O)c1cccc(-n2sc3ccccc3c2=O)c1
12940
